Reference for the values: patent US20240301031A1

- tgt: T1, human APRIL (5860-AP-010/CF, R&D Systems) (human, UniProt O75888 115-250, limits assumed)
- T1 construct: Bought protein
- T1 sequence (looked up): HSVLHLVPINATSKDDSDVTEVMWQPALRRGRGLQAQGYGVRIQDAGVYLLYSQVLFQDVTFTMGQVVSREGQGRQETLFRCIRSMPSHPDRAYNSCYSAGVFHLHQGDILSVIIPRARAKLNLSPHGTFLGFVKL
- measurement protocol: SPR (Biacore), sample captured on Protein A, antigen flowed, 1:1 fit
value kind: kon (M⁻¹ s⁻¹)
The response must be a number in M⁻¹ s⁻¹ with no trailing unit.

Consider the following illustrative entries.
binder	reported measurement
TACI-9-10Fc (Fc fusion, TACI-9 with K6E and K10E, fused to Fc; two identical polypeptides) SLSCREEQGEFYDHLLRDCISCASICGQHPKQCAYFCENKLDKTHTCPPCPAPEAEGAPSVFLFPPKPKDTLMISRTPEVTCVVVDVSHEDPEVKFNWYVDGVEVHNAKTKPREEQYNSTYRVVSVLTVLHQDWLNGKEYKCKVSNKALPSSIEKTISKAKGQPREPQVYTLPPSRDELTKNQVSLTCLVKGFYPSDIAVEWESNGQPENNYKTTPPVLDSDGSFFLYSKLTVDKSRWQQGNVFSCSVMHEALHNHYTQKSLSLSPGK	8.75e+06
TACI-9 Fc (Fc fusion, TACI positions 68-108, no mutation, fused directly to Fc; two identical polypeptides) SLSCRKEQGKFYDHLLRDCISCASICGQHPKQCAYFCENKLDKTHTCPPCPAPEAEGAPSVFLFPPKPKDTLMISRTPEVTCVVVDVSHEDPEVKFNWYVDGVEVHNAKTKPREEQYNSTYRVVSVLTVLHQDWLNGKEYKCKVSNKALPSSIEKTISKAKGQPREPQVYTLPPSRDELTKNQVSLTCLVKGFYPSDIAVEWESNGQPENNYKTTPPVLDSDGSFFLYSKLTVDKSRWQQGNVFSCSVMHEALHNHYTQKSLSLSPGK	1.15e+07

[Q] Looking for the measured kon of TACI-9-15Fc (Fc fusion, two identical polypeptides) STSCREEQGEFYDHLLRDCISCASICGQHPKQCAAFCENKLDKTHTCPPCPAPEAEGAPSVFLFPPKPKDTLMISRTPEVTCVVVDVSHEDPEVKFNWYVDGVEVHNAKTKPREEQYNSTYRVVSVLTVLHQDWLNGKEYKCKVSNKALPSSIEKTISKAKGQPREPQVYTLPPSRDELTKNQVSLTCLVKGFYPSDIAVEWESNGQPENNYKTTPPVLDSDGSFFLYSKLTVDKSRWQQGNVFSCSVMHEALHNHYTQKSLSLSPGK , can you help?
[A] 7.67e+06

[Q] Could you share which kon value was measured for RCT-18 (Telitacicept) (Fc fusion, Positive control; TACI part is positions 13-118 of the extracellular region of human TACI, the rest is Fc) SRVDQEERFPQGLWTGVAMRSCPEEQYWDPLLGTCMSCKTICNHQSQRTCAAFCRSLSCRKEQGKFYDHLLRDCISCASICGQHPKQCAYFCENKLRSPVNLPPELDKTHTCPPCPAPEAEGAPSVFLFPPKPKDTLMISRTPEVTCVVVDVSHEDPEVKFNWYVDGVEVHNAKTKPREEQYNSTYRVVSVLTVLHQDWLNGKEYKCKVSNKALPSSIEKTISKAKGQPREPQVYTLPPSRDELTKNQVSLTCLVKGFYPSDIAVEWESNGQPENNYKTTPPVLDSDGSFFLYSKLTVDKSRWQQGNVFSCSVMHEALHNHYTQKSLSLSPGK ?
[A] 2.34e+07
